# assayed_target: RNA-binding protein pos-1 (Caenorhabditis elegans)
# Sequence (G5EF15 whole entry): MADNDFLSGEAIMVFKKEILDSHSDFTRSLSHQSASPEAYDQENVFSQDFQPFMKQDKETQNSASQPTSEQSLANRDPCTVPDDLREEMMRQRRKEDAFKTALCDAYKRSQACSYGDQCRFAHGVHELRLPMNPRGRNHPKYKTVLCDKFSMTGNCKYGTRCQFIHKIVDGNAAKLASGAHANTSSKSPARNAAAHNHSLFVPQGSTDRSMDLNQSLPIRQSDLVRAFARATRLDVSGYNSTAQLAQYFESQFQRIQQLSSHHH
# experiment_summary: disruptors of C. elegans POS-1 RNA interaction – biochemical, fluorescence polarization, dose response (AID 1964);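 further: purified POS-1 fused to maltose binding protein made in E. coli; potency of compounds blocking POS-1 binding to fluorescent RNA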
The source made the active and inactive calls. No stated cut-off is given here; in the data, actives have a measured EC50 and inactives only a lower limit.
Measured EC50 values are reported for all entries that follow.

Sample records with EC50:
[[record]]
molecule = "N=C(N)N/N=C1C=C/C(=N\\NC(N)=S)C=C\\1"
measured_metric = "EC50"
result = "76.5 µM (active)"

[[record]]
molecule = "CC(=O)Nc1cccc(Oc2nc(-c3ccccn3)nc3ccccc23)c1"
measured_metric = "EC50"
result = "79.3 µM (active)"

[[record]]
molecule = "Cc1cc(C)c2c(=O)[nH]c(=O)n(Cc3ccccc3)c2n1"
measured_metric = "EC50"
result = "> 300 µM (not active)"

[[record]]
molecule = "Cc1nn(C)c(C)c1CN(C)C(=O)C1c2ccccc2Oc2ccccc21"
measured_metric = "EC50"
result = "15.5 µM (active)"

[[record]]
molecule = "CC1=NN(C(N)=S)C(=O)C1N=Nc1ccc(S(N)(=O)=O)cc1 (centres undefined)"
measured_metric = "EC50"
result = "19.7 µM (active)"


# input Quick check: EC50 of `CCOC(=O)c1cc2c(=O)n3ccccc3nc2n(C(C)C)/c1=N\C(=O)c1ccncc1` ?
# output > 300 µM (not active)

# input Quick check: EC50 of `C/N=C1\S/C(=C\c2cn(CC(=O)OC)c3ccccc23)C(=O)N1C` ?
# output > 300 µM (not active)

# input Quick check: EC50 of `Cc1cc(O)c(Oc2cc(C)cc(O)c2O)c(O)c1` ?
# output 43.9 µM (active)

# input Quick check: EC50 of `O=C(O)c1ccc(-n2cccc2)cc1O` ?
# output > 300 µM (not active)
